Assay explanation: Metabolic stability in human liver microsomes assessed as parent compound remaining
Format: ADME, microsome
Measured property: Stability (%)

See these solved cases before continuing.
                              smiles_string  unit_abbrev  assay_result
0  NC(=O)NC/C=C\CN(C[C@H]1Cc2ccccc2CN1)[C@H]1CCCc2cccnc21            %            73
1  C/C(CN)=C(/F)CN(C[C@H]1Cc2ccccc2CN1)[C@H]1CCCc2cccnc21            %            97
2  N[C@H]1CC[C@H](CN(C[C@H]2Cc3ccccc3CN2)[C@H]2CCCc3cccnc32)CC1            %            39
3  NCC1=C(CN(C[C@H]2Cc3ccccc3CN2)[C@H]2CCCc3cccnc32)CCCC1            %            65

A: FC1(F)CCC(NC/C=C\CN(C[C@H]2Cc3ccccc3CN2)[C@H]2CCCc3cccnc32)CC1
B: NC[C@H]1CC[C@H](CN(C[C@H]2Cc3ccccc3CN2)[C@H]2CCCc3cccnc32)CC1
C: NC/C=C/CN(C[C@H]1Cc2ccccc2CN1)[C@H]1CCCc2cccnc21
// smallest Stability at index 0, largest at the end List each label, following the requested order. A, B, C

====

Assay explanation: Permeability of the compound in pH 7.4 buffer after 4 hrs by PAMPA
Assay type: ADME
Test settings: read-out: permeability
Measured property: Papp at 4 h (×10⁻⁶ cm/s)

See these solved cases before continuing.
                                   molecule  unit_abbrev  assay_result
0  NC/C=C/CN(C[C@H]1Cc2ccccc2CN1)[C@H]1CCCc2cccnc21   ×10⁻⁶ cm/s            83
1  NC/C=C\CN(C[C@H]1Cc2ccccc2CN1)[C@H]1CCCc2cccnc21   ×10⁻⁶ cm/s            57
2  NC(=O)NC/C=C\CN(C[C@H]1Cc2ccccc2CN1)[C@H]1CCCc2cccnc21   ×10⁻⁶ cm/s            11
3  C/C(CN)=C(\F)CN(C[C@H]1Cc2ccccc2CN1)[C@H]1CCCc2cccnc21   ×10⁻⁶ cm/s            49
4  FC1(F)CCC(NC/C=C\CN(C[C@H]2Cc3ccccc3CN2)[C@H]2CCCc3cccnc32)CC1   ×10⁻⁶ cm/s           1.3
5  N[C@H]1CC[C@H](CN(C[C@H]2Cc3ccccc3CN2)[C@H]2CCCc3cccnc32)CC1   ×10⁻⁶ cm/s           1.2
6  C/C(CN(C[C@H]1Cc2ccccc2CN1)[C@H]1CCCc2cccnc21)=C(\F)CN   ×10⁻⁶ cm/s            55
7  C/C(=C/CN)CN(C[C@H]1Cc2ccccc2CN1)[C@H]1CCCc2cccnc21   ×10⁻⁶ cm/s            25

I: C/C(=C/CN(C[C@H]1Cc2ccccc2CN1)[C@H]1CCCc2cccnc21)CN
II: NCC1CC1CN(C[C@H]1Cc2ccccc2CN1)[C@H]1CCCc2cccnc21 (single isomer, unassigned; diastereomer 1)
III: C/C(CN)=C(/F)CN(C[C@H]1Cc2ccccc2CN1)[C@H]1CCCc2cccnc21
IV: C/C(CN(C[C@H]1Cc2ccccc2CN1)[C@H]1CCCc2cccnc21)=C(/F)CN
Descending sort on Papp at 4 h required. List each label, following the requested order. IV, III, II, I
